assay: Inhibition of human TrxR1 incubated for 15 mins in presence of NADPH
Outcome measure: pIC50
FYI, pIC50 means -log10 of a concentration in mol per litre.

Sample C[C@@H]1[C@H]2C[C@@H](C[C@H]1NCc1nc3ccccc3n1C1CCCCCC1)C2(C)C ; pIC50 observed: 5.31
